biological target: T1, recombinant human PDL1 (human, UniProt Q9NZQ7 19-238, limits assumed); experiment: SPR
T1 construct: SPR antigen; also called CD274; B7-H1
Entries annotated with measured kon
Reply with just the number (in M⁻¹ s⁻¹).

Consider the reported kon for these binders:
Task item: Kindly indicate its recorded kon. Item: PRO5036 (scFv, anti-PDL1 scFv) scFv: DIQMTQSPSSLSASVGDRVTITCQASQSIGTYLAWYQQKPGKPPKLLIYRGGILASGVPSRFSGSGSGTDFTLTISSLQPEDFATYYCQSNFYSDSTTIGPNAFGTGTKVTVLGGGGGSGGGGSGGGGSGGGGSQQLVESGGGLVQPGGSLRLSCAASGFSFNSDYWIYWVRQAPGKGLEWIASIYGGSSGNTQYASWAQGRFTISKDNSKNTVYLQMNSLRAEDTAVYFCARGYVDYGGATDLWGQGTLVTVSS
Reply: 4e+06

Task item: Kindly indicate its recorded kon. Item: PRO2230 (scFv, anti-PDL1 scFv; also called 37-20-B03-sc09.1) scFv: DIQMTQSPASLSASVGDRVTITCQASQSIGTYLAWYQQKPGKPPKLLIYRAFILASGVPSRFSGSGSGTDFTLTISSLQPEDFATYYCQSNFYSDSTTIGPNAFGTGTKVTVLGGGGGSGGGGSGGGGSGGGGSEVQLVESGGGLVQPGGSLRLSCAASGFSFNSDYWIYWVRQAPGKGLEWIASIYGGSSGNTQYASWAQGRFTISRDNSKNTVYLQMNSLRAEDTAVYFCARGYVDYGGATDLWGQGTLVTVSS
Reply: 6.3e+06

Task item: Kindly indicate its recorded kon. Item: PRO3891 (scFv, anti-PDL1 scFv) scFv: DIQMTQSPSSLSASVGDRVTITCQASQSINDYLAWYQQKPGKAPKLLIYKGGTLASGVPSRFSGSGSGTDFTLTISSLQPEDFATYYCQQGYIITDIDNVFGTGTKVTVLGGGGGSGGGGSGGGGSGGGGSQVQLQESGPGLVKPSETLSLTCKASGFSFSSGYDMCWVRQPPGKGLEWIACVVAGSVDITYYASWAKGRVTISKDSSKNQVSLKLSSVTAADSAVYYCARKDAYSDAFNLWGQGTLVKVSS
Reply: 6e+06

Task item: Kindly indicate its recorded kon. Item: PRO3724 (scFv, anti-PDL1 scFv) scFv: DIQMTQSPSSLSASVGDRVTITCQASQSINDYLAWYQQKPGKAPKLLIYKGGTLASGVPSRFSGSGSGTDFTLTISSLQPEDFATYYCQQGYIITDIDNVFGTGTKVTVLGGGGGSGGGGSGGGGSGGGGSQVQLQESGPGLVKPSETLSLTCKASGFSFSSGYDMCWVRQPPGKGLEWIACVVAGSVDITYYASWAKGRVTISKDSSKNQVSLKLSSVTAADTAVYYCARKDAYSDAFNLWGQGTLVTVSS
Reply: 4.7e+06

Switching to the query record.
Task item: Kindly indicate its recorded kon. Item: PRO1392 (scFv, anti-PDL1 scFv (VL-linker-VH); also called 33-03-G02-sc18) scFv: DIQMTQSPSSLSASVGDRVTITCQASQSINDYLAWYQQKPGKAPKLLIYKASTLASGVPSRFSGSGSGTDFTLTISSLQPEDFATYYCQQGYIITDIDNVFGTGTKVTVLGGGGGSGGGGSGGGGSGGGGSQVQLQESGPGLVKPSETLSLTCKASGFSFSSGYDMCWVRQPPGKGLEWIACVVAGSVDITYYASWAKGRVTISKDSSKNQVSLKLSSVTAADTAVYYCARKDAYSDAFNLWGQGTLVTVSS
Reply: 5.6e+06
